System: Escherichia coli TOP10
Experiment: shrunken log2 fold change of peptide-encoding DNA abundance (4.5 h post-induction vs induction); higher = less antimicrobial activity (less host growth inhibition)
Conditions: time post-induction: 4.5 h; library: site-saturation at positions 5, 18, 19, 20
readout: shrunken log2 fold change
Keep the answer to the number alone.

RRIRERPPRLPRPRPRPPVVPRP: -0.0806

// switching to the query sequence
Field request: shrunken log2 fold change | item: "RRIRDRPPRLPRPRPRPGRFPRP"
0.315

----------
# Lookup of reported shrunken log2 fold change keyed by entry
System: Escherichia coli TOP10
Test: shrunken log2 fold change of peptide-encoding DNA abundance (4.5 h post-induction vs induction); higher = less antimicrobial activity (less host growth inhibition)
Settings: time post-induction: 4.5 h; library: site-saturation at positions 5, 18, 19, 20
Keep the answer to the number alone.

Example entries begin here.
RRIRVRPPRLPRPRPRPKGSPRP: 0.0616
RRIRFRPPRLPRPRPRPCQYPRP: -0.53
RRIRVRPPRLPRPRPRPKNTPRP: -0.347
RRIRRRPPRLPRPRPRPHHCPRP: -0.0737
RRIRPRPPRLPRPRPRPENVPRP: -0.2
RRIRIRPPRLPRPRPRPRPSPRP: 0.322
RRIRDRPPRLPRPRPRPTCYPRP: 0.289
RRIRDRPPRLPRPRPRPTAQPRP: 0.0542

// switching to the query sequence
Field request: shrunken log2 fold change | item: "RRIRNRPPRLPRPRPRPATWPRP"
-0.000853

----------
# Lookup of reported shrunken log2 fold change keyed by entry
Tested on: Escherichia coli TOP10
Assay: shrunken log2 fold change of peptide-encoding DNA abundance (4.5 h post-induction vs induction); higher = less antimicrobial activity (less host growth inhibition)
Settings: time post-induction: 4.5 h; library: site-saturation at positions 5, 18, 19, 20
Keep the answer to the number alone.

RRIRNRPPRLPRPRPRPKPPPRP: 0.436
RRIRSRPPRLPRPRPRPTPHPRP: 0.308
RRIRRRPPRLPRPRPRPLMDPRP: 0.235

Field request: shrunken log2 fold change | item: "RRIRYRPPRLPRPRPRPMSPPRP"
-0.0952

Field request: shrunken log2 fold change | item: "RRIRNRPPRLPRPRPRPTMGPRP"
-0.0468

----------
Test system: Escherichia coli TOP10
Test: shrunken log2 fold change of peptide-encoding DNA abundance (4.5 h post-induction vs induction); higher = less antimicrobial activity (less host growth inhibition)
Conditions: time post-induction: 4.5 h; library: site-saturation at positions 5, 18, 19, 20
Please enter yes (1) where shrunken log2 fold change is greater than or equal to -0.1, and no (0) where it is lower.

RRIRHRPPRLPRPRPRPDNSPRP: no (0)
RRIRQRPPRLPRPRPRPYQNPRP: no (0)
RRIRERPPRLPRPRPRPDWEPRP: yes (1)
RRIRNRPPRLPRPRPRPQIVPRP: yes (1)

Check this sequence for shrunken log2 fold change at or above -0.1: "RRIRPRPPRLPRPRPRPWDNPRP"
yes (1)

Check this sequence for shrunken log2 fold change at or above -0.1: "RRIRVRPPRLPRPRPRPTTNPRP"
yes (1)

----------
# Lookup of reported shrunken log2 fold change keyed by entry
System: Escherichia coli TOP10
Test: shrunken log2 fold change of peptide-encoding DNA abundance (4.5 h post-induction vs induction); higher = less antimicrobial activity (less host growth inhibition)
Settings: time post-induction: 4.5 h; library: site-saturation at positions 5, 18, 19, 20

Example entries begin here.
RRIRQRPPRLPRPRPRPMGMPRP: 0.0187
RRIRDRPPRLPRPRPRPLRHPRP: 0.358
RRIRDRPPRLPRPRPRPNTGPRP: -0.098
RRIRVRPPRLPRPRPRPMRKPRP: 4.33
RRIRMRPPRLPRPRPRPQEYPRP: -0.0485
RRIRNRPPRLPRPRPRPSPWPRP: 0.0438
RRIRLRPPRLPRPRPRPKRLPRP: -0.0581
RRIRKRPPRLPRPRPRPKGCPRP: 0.0534
RRIRDRPPRLPRPRPRPVSRPRP: 0.218
RRIRFRPPRLPRPRPRPSKDPRP: -0.347

Field request: shrunken log2 fold change | item: "RRIRMRPPRLPRPRPRPMMHPRP"
-0.0538

Field request: shrunken log2 fold change | item: "RRIRNRPPRLPRPRPRPMGQPRP"
0.128

Field request: shrunken log2 fold change | item: "RRIRSRPPRLPRPRPRPRLHPRP"
0.15

Field request: shrunken log2 fold change | item: "RRIRWRPPRLPRPRPRPSWYPRP"
-0.239

Field request: shrunken log2 fold change | item: "RRIRIRPPRLPRPRPRPLREPRP"
0.255

Field request: shrunken log2 fold change | item: "RRIRPRPPRLPRPRPRPVWCPRP"
0.0172

Field request: shrunken log2 fold change | item: "RRIRDRPPRLPRPRPRPRLVPRP"
0.314

Field request: shrunken log2 fold change | item: "RRIRQRPPRLPRPRPRPYCEPRP"
-0.327

----------
System: Escherichia coli TOP10
Assay: shrunken log2 fold change of peptide-encoding DNA abundance (4.5 h post-induction vs induction); higher = less antimicrobial activity (less host growth inhibition)
Conditions: time post-induction: 4.5 h; library: site-saturation at positions 5, 18, 19, 20
readout: shrunken log2 fold change
Keep the answer to the number alone.

Example entries begin here.
RRIRFRPPRLPRPRPRPQQRPRP: 0.061
RRIRRRPPRLPRPRPRPPGHPRP: 0.507
RRIRSRPPRLPRPRPRPEAEPRP: 0.841
RRIRFRPPRLPRPRPRPNFGPRP: 0.0849
RRIRNRPPRLPRPRPRPGETPRP: 0.0546

Field request: shrunken log2 fold change | item: "RRIRTRPPRLPRPRPRPSIKPRP"
-0.556

----------
Test system: Escherichia coli TOP10
Assay: shrunken log2 fold change of peptide-encoding DNA abundance (4.5 h post-induction vs induction); higher = less antimicrobial activity (less host growth inhibition)
Details: time post-induction: 4.5 h; library: site-saturation at positions 5, 18, 19, 20
# Lookup of reported shrunken log2 fold change keyed by entry

Example entries begin here.
RRIRQRPPRLPRPRPRPTRYPRP: 0.511
RRIRMRPPRLPRPRPRPMFCPRP: -0.0875
RRIRCRPPRLPRPRPRPRMQPRP: 0.349
RRIRKRPPRLPRPRPRPDEFPRP: 1.24
RRIRDRPPRLPRPRPRPHRLPRP: 0.033

Field request: shrunken log2 fold change | item: "RRIRKRPPRLPRPRPRPVIRPRP"
0.0302

Field request: shrunken log2 fold change | item: "RRIRKRPPRLPRPRPRPDEIPRP"
0.0203

Field request: shrunken log2 fold change | item: "RRIRHRPPRLPRPRPRPELNPRP"
-0.098

Field request: shrunken log2 fold change | item: "RRIRFRPPRLPRPRPRPLKYPRP"
-0.262

----------
Tested on: Escherichia coli TOP10
Assay: shrunken log2 fold change of peptide-encoding DNA abundance (4.5 h post-induction vs induction); higher = less antimicrobial activity (less host growth inhibition)
Settings: time post-induction: 4.5 h; library: site-saturation at positions 5, 18, 19, 20
# Lookup of reported shrunken log2 fold change keyed by entry

RRIRDRPPRLPRPRPRPPPDPRP: 1.14
RRIRSRPPRLPRPRPRPSFCPRP: -0.251
RRIRWRPPRLPRPRPRPLMMPRP: 0.0198

Field request: shrunken log2 fold change | item: "RRIRFRPPRLPRPRPRPEPDPRP"
-0.0658

Field request: shrunken log2 fold change | item: "RRIRNRPPRLPRPRPRPASFPRP"
-0.00784

Field request: shrunken log2 fold change | item: "RRIRYRPPRLPRPRPRPCSPPRP"
-0.0146

Field request: shrunken log2 fold change | item: "RRIRNRPPRLPRPRPRPDLEPRP"
0.124

Field request: shrunken log2 fold change | item: "RRIRVRPPRLPRPRPRPIPEPRP"
-0.0974

Field request: shrunken log2 fold change | item: "RRIRERPPRLPRPRPRPWFIPRP"
-0.00655

Field request: shrunken log2 fold change | item: "RRIRIRPPRLPRPRPRPPVTPRP"
-0.287

Field request: shrunken log2 fold change | item: "RRIRLRPPRLPRPRPRPRLSPRP"
0.346

Field request: shrunken log2 fold change | item: "RRIRKRPPRLPRPRPRPWCYPRP"
-0.168

Field request: shrunken log2 fold change | item: "RRIRFRPPRLPRPRPRPTIYPRP"
-0.689

----------
System: Escherichia coli TOP10;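 also: peptides expressed intracellularly from a pBAD plasmid library in pooled LB shake-flask culture, induced with 0.3% L-arabinose, DNA abundance read by NGS, three biological replicates, DESeq2 with apeglm shrinkage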
Assay: shrunken log2 fold change of peptide-encoding DNA abundance (4.5 h post-induction vs induction); higher = less antimicrobial activity (less host growth inhibition)
Details: time post-induction: 4.5 h; library: site-saturation at positions 5, 18, 19, 20
readout: shrunken log2 fold change

Field request: shrunken log2 fold change | item: "RRIRRRPPRLPRPRPRPSCIPRP"
-0.596

Field request: shrunken log2 fold change | item: "RRIRKRPPRLPRPRPRPFFLPRP"
0.225

Field request: shrunken log2 fold change | item: "RRIRTRPPRLPRPRPRPKSQPRP"
-0.285

Field request: shrunken log2 fold change | item: "RRIRNRPPRLPRPRPRPDKVPRP"
-0.00145

Field request: shrunken log2 fold change | item: "RRIRNRPPRLPRPRPRPVHQPRP"
-0.121

Field request: shrunken log2 fold change | item: "RRIRIRPPRLPRPRPRPWYDPRP"
-0.0891

Field request: shrunken log2 fold change | item: "RRIRGRPPRLPRPRPRPKNAPRP"
1.91

Field request: shrunken log2 fold change | item: "RRIRMRPPRLPRPRPRPFFTPRP"
-0.054
